Target System: T1, A*03:01, P04439
T1 chain: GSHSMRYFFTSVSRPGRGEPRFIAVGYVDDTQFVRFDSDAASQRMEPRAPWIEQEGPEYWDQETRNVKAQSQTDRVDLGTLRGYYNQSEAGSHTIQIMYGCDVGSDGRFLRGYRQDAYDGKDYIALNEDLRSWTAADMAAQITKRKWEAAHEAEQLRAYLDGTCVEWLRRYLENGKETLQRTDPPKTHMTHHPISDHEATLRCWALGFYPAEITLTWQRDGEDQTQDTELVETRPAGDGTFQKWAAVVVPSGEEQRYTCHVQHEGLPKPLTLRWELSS
Run Conditions: modification not given
pIC50: −log10 of the molar value.
Reported Property: pIC50

>>> test_value("QLKLNWFKK […, serotype 2]")
6.82

Values compiled from patent US20190008947A1.
